Below, each entry is listed alongside its reported half-life.
Assay: Half life in Sprague-Dawley rat at 10 mg/kg, iv measured up to 24 hrs by LC-MS/MS analysis
Assay type: ADME, organism-based
Details: in vivo
# unit: h | format: bare number

Query Smiles	Unit Abbreviation	Observed Measurement
COC(=O)[C@]12CCC(C)(C)C[C@H]1[C@H]1C(=O)C=C3[C@@]4(C)C=C(C#N)C(=O)C(C)(C)[C@@H]4CC[C@@]3(C)[C@]1(C)CC2	h	4.41

Turning now to a further record.
What the record says about `COC(=O)[C@@H](N)CCC(=O)Nc1ccc(COC2=C(C#N)[C@H](O)[C@]3(C)C4=CC(=O)[C@@H]5[C@@H]6CC(C)(C)CC[C@]6(C(=O)OC)CC[C@@]5(C)[C@]4(C)CC[C@H]3C2(C)C)cc1` : half-life is 1.31

FYI, the data here is from ChEMBL document CHEMBL4017544.
